Please go through the items and note down their EC50.
Tested on: HIV-1 (IIIB) in MT-4 cells
method notes: HIV MT-4 antiviral assay
Format: cell-based
study conditions: Human immunodeficiency virus 1, MT4, 120 h, 5 days, Cell Titer Glo
One number for each entry, in nM.

Completed entries (count: 2):
C[C@H]1CC[C@@](C)(O)[C@H]2CN1C(=O)c1c(O)c(=O)c(C(=O)NCc3ccc(F)cc3F)cn12 [Example 33]
2.1
C[C@H]1C=C[C@H](OC(F)F)[C@H]2CN1C(=O)c1c(O)c(=O)c(C(=O)NCc3c(F)cc(F)cc3F)cn12 [Example 22]
1.7

Could you now consider this next compound?
Sample C[C@H]1CC[C@H](OC(F)F)[C@H]2CN1C(=O)c1c(O)c(=O)c(C(=O)NCc3c(F)cc(F)cc3F)cn12 [Example 27] — what was its EC50? 1.1

FYI, the data here is from patent US12421235B2.
